- protocol: physchem
- Assay type: physicochemical
- test.settings: basic pKa
property.name: pKa

Exercise: // returns reported pKa for input COC(=O)Nc1nc2ccccc2[nH]1 [carbendazim, methyl 2-benzimidazolecarbamate]
Solution: 4.5

* * *

- protocol: physchem
- Format: physicochemical
- test.settings: acidic pKa
property.name: pKa
Give bare numbers.

Exercise: // returns reported pKa for input COC(=O)Nc1nc2ccccc2[nH]1 [carbendazim, methyl 2-benzimidazolecarbamate]
Solution: 10.6

* * *

- protocol: physchem
- Format: physicochemical
- test.settings: pH 2, aqueous buffer, thermodynamic from solid, Solubility of carbendazim
property.name: solubility at 10 days (µg/mL)
One number for each entry, in µg/mL.

Exercise: // returns reported solubility at 10 days for input COC(=O)Nc1nc2ccccc2[nH]1 [carbendazim, methyl 2-benzimidazolecarbamate]
Solution: 1640

* * *

- protocol: physchem
- Type: physicochemical
- test.settings: pH 2, aqueous buffer, thermodynamic from solid
property.name: solubility at 10 days (µg/mL)
One number for each entry, in µg/mL.

Exercise: // returns reported solubility at 10 days for input COC(=O)Nc1nc2ccccc2[nH]1 [carbendazim, methyl 2-benzimidazolecarbamate]
Solution: 1600

* * *

- protocol: physchem
- Type: physicochemical
- test.settings: pH 7, aqueous buffer, thermodynamic from solid, Solubility of carbendazim
property.name: solubility at 10 days
Remember to follow the number with its unit.

Exercise: // returns reported solubility at 10 days for input COC(=O)Nc1nc2ccccc2[nH]1 [carbendazim, methyl 2-benzimidazolecarbamate]
Solution: 6 µg/mL

* * *

- protocol: in vivo
- test.settings: mouse, iv, 6.4 ug
property.name: bioavailability (%)
Give bare numbers, in %.

Exercise: // returns reported bioavailability for input COC(=O)Nc1nc2ccccc2[nH]1 [carbendazim, methyl 2-benzimidazolecarbamate]
Solution: 100

* * *

- protocol: in vivo
- test.settings: mouse, iv, 6.4 ug
property.name: Cmax (ng/mL)
Numbers only, in ng/mL.

Exercise: // returns reported Cmax for input COC(=O)Nc1nc2ccccc2[nH]1 [carbendazim, methyl 2-benzimidazolecarbamate]
Solution: 15000
